The measured values listed here are drawn from paper PMC9482650.

Target: T1, DFNB31_2, Q9P202
T1 sequence (Q9P202 274-371, limits assumed, looked up): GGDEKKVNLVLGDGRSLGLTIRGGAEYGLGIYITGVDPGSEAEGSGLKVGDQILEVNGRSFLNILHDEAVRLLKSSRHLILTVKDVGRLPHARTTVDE
Assay: holdup assay
Set-up: key: below the threshold = too weak to quantify, mostly under pKd 3.1 to 4
Details: plain residues with an end cap or a label only (N-terminal biotin on a linker: ttds)
Observed property: pKd

binder QRPYRRESEI [KCNJ12, Q14500] , pKd observed: below the threshold

The binder identified as SGGKRKETLV [NET1, Q7Z628] registered its pKd at below the threshold

Recorded pKd (binder GRLLGLETNV [ARHGEF26, Q96DR7] ): below the threshold

The binder listed as KQVVPFSSSV [GDA, Q9Y2T3] shows pKd equal to below the threshold

Entry SRSRRRETAL [HPV33-E6, P06427] ; pKd = 3.55

Hi team, please reply with pKd for each item in this list.
1. SHSSKGETAV [FZD7, O75084]
2. DLDEEEDTHL [PODXL, O00592]
3. GARVSKETPL [MAPK12, P53778]

### Response
1. below the threshold
2. below the threshold
3. below the threshold
